Attribution: ChEMBL document CHEMBL1961873

study system: Tyrosine-protein kinase Fer (Homo sapiens)
cond: at 1 µM
Description: GSK_PKIS: FER mean inhibition at 1 uM [Nanosyn]
# if value of inhibition reaches 4%, tag satisfied; if it stays below, tag not satisfied

Solved entries (count: 2):
> print(dat)
                      smiles.representation    class.label
1  COc1cc2ncn(-c3cc(OCc4ccccc4C(F)(F)F)c(C(C)=O)s3)c2cc1OC      satisfied
2     O=C(Nc1n[nH]c2nc(-c3ccco3)ccc12)C1CC1  not satisfied

# check: inhibition of CS(=O)(=O)CCNCc1ccc(-c2ccc3ncnc(Nc4ccc(OCc5ccccc5)c(Br)c4)c3c2)o1 is greater than or equal to 4% satisfied

Record Fc1ccc(-c2nc3n(c2-c2ccncc2)CCS3)cc1 ; criterion: inhibition no lower than 4%. Met? not satisfied

Could you verify whether the entry O=C1Nc2ccccc2/C1=C/Nc1ccc(-n2cncn2)cc1 shows inhibition of no less than 4%? satisfied

* * *

study system: Ribosomal protein S6 kinase alpha-4 (Homo sapiens);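 note: values are mean inhibition of MSK2, from GSK PKIS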
cond: at 0.1 µM
The following molecules are shown together with reported inhibition values.
Please reply with the bare figure in % and do not write the unit itself.

Worked set:
> print(dat)
                                   molecule  measured.quantity  readout.units  obs.value
1  C/C(Nc1ccc(S(N)(=O)=O)cc1)=C1/C(=O)Nc2ccccc21         inhibition              %       1.38
2  NC(=O)c1ccc(Oc2nccc(-c3c(-c4ccc(F)cc4)ncn3C3CCNCC3)n2)cc1         inhibition              %       3.42
3  FC(F)(F)c1cccc(Nc2nccc(-c3cnn4nc(-c5ccccc5)ccc34)n2)c1         inhibition              %       1.71
4  CS(=O)(=O)CCNCc1cc(-c2cc3c(Nc4ccc(OCc5cccc(F)c5)c(Cl)c4)ncnc3s2)cs1         inhibition              %       3.41

As a next step, examine the molecule that follows.
Sample Nc1nccc(-c2c(-c3ccc(F)cc3)ncn2C2CCC(O)CC2)n1 (stereo not given) — what was its inhibition? -1.62

* * *

# inhibition per record follows
study system: Calcium/calmodulin-dependent protein kinase type II subunit delta (Homo sapiens) (UniProt Q13557);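 note: percent inhibition values are means, taken from the GSK PKIS kinase profiling set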
Sequence (Q13557 whole entry): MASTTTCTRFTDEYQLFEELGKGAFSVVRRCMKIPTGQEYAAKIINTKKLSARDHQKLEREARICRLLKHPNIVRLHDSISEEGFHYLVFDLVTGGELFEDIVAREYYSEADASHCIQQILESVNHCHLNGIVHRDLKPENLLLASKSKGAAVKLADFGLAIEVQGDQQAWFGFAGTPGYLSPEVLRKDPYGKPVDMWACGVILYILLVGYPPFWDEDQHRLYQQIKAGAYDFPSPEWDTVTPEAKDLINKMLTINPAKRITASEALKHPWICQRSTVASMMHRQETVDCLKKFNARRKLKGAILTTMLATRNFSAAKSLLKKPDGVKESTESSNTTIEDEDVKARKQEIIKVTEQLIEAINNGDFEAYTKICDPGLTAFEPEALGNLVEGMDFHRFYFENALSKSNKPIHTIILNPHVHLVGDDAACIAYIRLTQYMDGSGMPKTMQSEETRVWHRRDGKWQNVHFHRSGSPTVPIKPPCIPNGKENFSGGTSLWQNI
cond: at 0.1 µM
Reply with just the number (in %).

Bench note: what inhibition did COc1cc(Nc2ncc(-c3ccccc3)o2)cc(OC)c1OC show? -2.56

Param item = COc1cc2ncn(-c3cc(OCCc4ccccc4)c(C(N)=O)s3)c2cc1OC ; retrieve measured inhibition. 2.83

// returns reported inhibition for input O=C1Nc2ccccc2/C1=C/Nc1ccc(-n2cncn2)cc1 2.3

So what does the record say about inhibition for CCC(=O)Nc1ccc(C)c(-c2ccc(C(=O)NCC3CC3)cc2)c1 ? 2.68

Request the reported inhibition associated with Nc1nccc(-c2c(-c3ccc(F)cc3)ncn2C2CCC(O)CC2)n1 (stereo not given) -1.92

Which inhibition is listed for COc1cccc(/C=N/Nc2ncnc3c2cnn3-c2cccc(OC)c2)c1 ? 3.36

* * *

study system: Casein kinase II subunit alpha (Homo sapiens) (UniProt P68400)
Sequence (P68400 whole entry, looked up): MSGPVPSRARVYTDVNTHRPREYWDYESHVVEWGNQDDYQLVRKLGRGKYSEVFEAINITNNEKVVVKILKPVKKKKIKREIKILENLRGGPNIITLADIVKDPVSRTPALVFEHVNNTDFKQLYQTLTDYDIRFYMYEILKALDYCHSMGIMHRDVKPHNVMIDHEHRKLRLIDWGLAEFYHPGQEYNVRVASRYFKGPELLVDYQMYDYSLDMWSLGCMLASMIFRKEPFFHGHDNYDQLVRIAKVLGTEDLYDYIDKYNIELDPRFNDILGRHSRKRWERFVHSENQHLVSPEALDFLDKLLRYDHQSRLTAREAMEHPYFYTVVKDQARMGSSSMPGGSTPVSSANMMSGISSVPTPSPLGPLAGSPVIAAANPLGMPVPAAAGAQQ
cond: at 0.1 µM
Description: GSK_PKIS: CK2 mean inhibition at 0.1 uM [Nanosyn]
Below: a set of entries, each annotated with reported inhibition.
Express your answer in %, writing the number without its unit.

See these solved cases before continuing.
> print(dat)
                                   compound                              study.system  measured.quantity  obs.value
1    O=C(Nc1n[nH]c2cc(-c3ccccc3)ccc12)C1CC1  Casein kinase II subunit alpha (Homo sapiens) (UniProt P68400)         inhibition       1.99
2  NC(=O)c1ccc(Oc2nccc(-c3c(-c4ccc(F)cc4)ncn3C3CCNCC3)n2)cc1  Casein kinase II subunit alpha (Homo sapiens) (UniProt P68400)         inhibition       2.95
3      CCc1cccc(CC)c1/C=C/c1cncc(C(=O)NC)c1  Casein kinase II subunit alpha (Homo sapiens) (UniProt P68400)         inhibition      -0.28
4  COc1ccc2cc(-c3c(-c4ccncc4)nc(-c4ccc([S+](C)[O-])cc4C)n3C)ccc2c1 (stereo not given)  Casein kinase II subunit alpha (Homo sapiens) (UniProt P68400)         inhibition       2.77

Switching to the query record.
Entry under review: CCc1ccc(Oc2nccc(-c3c(-c4ccc(F)cc4)ncn3C3CCNCC3)n2)cc1 . Reported inhibition? 3.17

* * *

// reported inhibition per item
study system: Tyrosine-protein kinase ZAP-70 (Homo sapiens) (UniProt P43403)
Sequence (P43403 whole entry): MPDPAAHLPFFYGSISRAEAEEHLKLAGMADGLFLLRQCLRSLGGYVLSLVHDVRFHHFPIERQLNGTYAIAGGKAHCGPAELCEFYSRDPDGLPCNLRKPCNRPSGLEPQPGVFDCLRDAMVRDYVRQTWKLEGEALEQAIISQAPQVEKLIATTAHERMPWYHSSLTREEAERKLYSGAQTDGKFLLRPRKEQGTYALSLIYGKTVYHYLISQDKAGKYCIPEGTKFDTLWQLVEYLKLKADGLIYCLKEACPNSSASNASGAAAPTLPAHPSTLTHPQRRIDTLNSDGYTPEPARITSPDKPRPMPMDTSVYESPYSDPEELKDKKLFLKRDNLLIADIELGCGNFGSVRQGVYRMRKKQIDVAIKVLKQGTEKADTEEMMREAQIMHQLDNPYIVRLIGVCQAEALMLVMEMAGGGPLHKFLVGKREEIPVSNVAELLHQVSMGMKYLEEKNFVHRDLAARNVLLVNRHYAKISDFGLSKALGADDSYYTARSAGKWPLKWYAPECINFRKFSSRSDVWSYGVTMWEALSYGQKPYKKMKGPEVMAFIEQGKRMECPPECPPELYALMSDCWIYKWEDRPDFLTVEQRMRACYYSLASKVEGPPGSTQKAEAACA
cond: at 1 µM
Description: GSK_PKIS: ZAP70 mean inhibition at 1 uM [Nanosyn]
Hi! Could you send only the number? It should be in %, unit omitted.

> print(dat)
                      smiles.representation  obs.value
1  FC(F)(F)c1cccc(Nc2nccc(-c3cnn4nc(-c5ccccc5)ccc34)n2)c1       2.56
2  COc1cc(C)c(N(C)C(=O)CN(C)C)cc1Nc1nc(Nc2cccc(F)c2C(N)=O)c2cc[nH]c2n1      -6.34
3  N#Cc1ccc(Oc2nccc(-c3c(-c4ccc(F)cc4)ncn3C3CCNCC3)n2)cc1        1.9

Could you tell me which inhibition is on file for COc1cc(N2CCN(C(C)C)CC2)ccc1Nc1nc(Nc2ccc(F)cc2C(=O)NC[C@@H](O)CO)c2cc[nH]c2n1 ? 5.52

Endpoint output: inhibition of Cc1ccc(C(=O)NC2CCC2)cc1-c1ccc(C(=O)NCC2CC2)cc1 . Value? 3.75

* * *

study system: Macrophage-stimulating protein receptor (Homo sapiens) (UniProt Q04912)
Sequence (Q04912 25-304 limits assumed): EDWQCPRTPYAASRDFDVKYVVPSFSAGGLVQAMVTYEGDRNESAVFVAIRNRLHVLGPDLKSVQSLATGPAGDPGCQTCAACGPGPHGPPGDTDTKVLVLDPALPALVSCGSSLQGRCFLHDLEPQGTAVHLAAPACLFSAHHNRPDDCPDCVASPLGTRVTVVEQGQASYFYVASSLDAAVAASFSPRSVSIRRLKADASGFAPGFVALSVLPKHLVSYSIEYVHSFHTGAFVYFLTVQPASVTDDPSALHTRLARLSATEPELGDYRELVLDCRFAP
Sequence (Q04912 310-1400 limits assumed): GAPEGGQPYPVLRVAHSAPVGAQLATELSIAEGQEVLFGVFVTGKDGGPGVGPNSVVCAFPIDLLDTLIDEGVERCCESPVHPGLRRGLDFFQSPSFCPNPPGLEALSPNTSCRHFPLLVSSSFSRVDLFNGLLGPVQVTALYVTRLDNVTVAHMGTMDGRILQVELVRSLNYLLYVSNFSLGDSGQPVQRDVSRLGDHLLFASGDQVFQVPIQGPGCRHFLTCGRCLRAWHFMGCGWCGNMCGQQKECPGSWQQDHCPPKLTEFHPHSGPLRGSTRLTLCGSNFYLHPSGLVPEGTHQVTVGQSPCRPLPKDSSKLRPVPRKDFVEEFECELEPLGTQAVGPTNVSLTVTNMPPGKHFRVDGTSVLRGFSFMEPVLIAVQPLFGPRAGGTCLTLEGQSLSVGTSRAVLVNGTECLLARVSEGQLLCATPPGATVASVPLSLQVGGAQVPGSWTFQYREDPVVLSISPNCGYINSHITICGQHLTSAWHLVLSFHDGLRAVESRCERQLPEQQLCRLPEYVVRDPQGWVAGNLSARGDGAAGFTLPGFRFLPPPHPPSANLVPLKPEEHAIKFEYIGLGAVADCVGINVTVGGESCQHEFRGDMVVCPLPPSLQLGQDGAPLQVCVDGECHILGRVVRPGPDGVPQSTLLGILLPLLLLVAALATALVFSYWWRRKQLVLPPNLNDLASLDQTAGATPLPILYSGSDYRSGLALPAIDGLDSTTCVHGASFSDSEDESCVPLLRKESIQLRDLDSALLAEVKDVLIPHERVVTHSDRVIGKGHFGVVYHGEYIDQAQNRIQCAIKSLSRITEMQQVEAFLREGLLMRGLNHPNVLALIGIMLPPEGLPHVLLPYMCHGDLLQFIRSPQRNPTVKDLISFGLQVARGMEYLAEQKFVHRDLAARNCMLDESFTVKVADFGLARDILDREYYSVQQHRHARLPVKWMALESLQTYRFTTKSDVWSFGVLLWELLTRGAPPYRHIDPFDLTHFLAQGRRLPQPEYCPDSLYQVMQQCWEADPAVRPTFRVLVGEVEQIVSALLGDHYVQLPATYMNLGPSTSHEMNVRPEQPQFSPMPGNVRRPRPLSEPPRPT
cond: at 1 µM
Description: GSK_PKIS: RON mean inhibition at 1 uM [Nanosyn]
Consider the following molecules and their measured inhibition readings.
Express your answer as a number followed by its unit.

Worked cases, answers included:
> print(dat)
                                   molecule  measured.quantity  obs.value
1      CCc1cccc(CC)c1/C=C/c1cncc(C(=O)NC)c1         inhibition         6%
2  NC(=O)c1cc(-c2ccc(F)cc2)cc(-c2ccncc2)c1N         inhibition      2.73%
3   O=C1Nc2ccc(I)cc2C1=Cc1cc(Br)c(O)c(Br)c1         inhibition      13.2%

Look up inhibition: Fc1ccc(-c2ncn(C3CCNCC3)c2-c2ccnc(Oc3ccc(Oc4ccccc4)cc3)n2)cc1 0.94%

Fill in the blank: the reported inhibition of COc1ccc(C2=C(N3CCc4ccccc43)C(=O)NC2=O)cc1 is ____. 6.83%

inhibition for NS(=O)(=O)c1ccc(Nc2cc(-c3ccc(O)c(F)c3)n[nH]2)cc1 ? 10.5%

* * *

study system: Ephrin type-A receptor 4 (Homo sapiens) (UniProt P54764);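 note: mean inhibition of EPHA4 from the GSK PKIS screening set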
Sequence (P54764 whole entry): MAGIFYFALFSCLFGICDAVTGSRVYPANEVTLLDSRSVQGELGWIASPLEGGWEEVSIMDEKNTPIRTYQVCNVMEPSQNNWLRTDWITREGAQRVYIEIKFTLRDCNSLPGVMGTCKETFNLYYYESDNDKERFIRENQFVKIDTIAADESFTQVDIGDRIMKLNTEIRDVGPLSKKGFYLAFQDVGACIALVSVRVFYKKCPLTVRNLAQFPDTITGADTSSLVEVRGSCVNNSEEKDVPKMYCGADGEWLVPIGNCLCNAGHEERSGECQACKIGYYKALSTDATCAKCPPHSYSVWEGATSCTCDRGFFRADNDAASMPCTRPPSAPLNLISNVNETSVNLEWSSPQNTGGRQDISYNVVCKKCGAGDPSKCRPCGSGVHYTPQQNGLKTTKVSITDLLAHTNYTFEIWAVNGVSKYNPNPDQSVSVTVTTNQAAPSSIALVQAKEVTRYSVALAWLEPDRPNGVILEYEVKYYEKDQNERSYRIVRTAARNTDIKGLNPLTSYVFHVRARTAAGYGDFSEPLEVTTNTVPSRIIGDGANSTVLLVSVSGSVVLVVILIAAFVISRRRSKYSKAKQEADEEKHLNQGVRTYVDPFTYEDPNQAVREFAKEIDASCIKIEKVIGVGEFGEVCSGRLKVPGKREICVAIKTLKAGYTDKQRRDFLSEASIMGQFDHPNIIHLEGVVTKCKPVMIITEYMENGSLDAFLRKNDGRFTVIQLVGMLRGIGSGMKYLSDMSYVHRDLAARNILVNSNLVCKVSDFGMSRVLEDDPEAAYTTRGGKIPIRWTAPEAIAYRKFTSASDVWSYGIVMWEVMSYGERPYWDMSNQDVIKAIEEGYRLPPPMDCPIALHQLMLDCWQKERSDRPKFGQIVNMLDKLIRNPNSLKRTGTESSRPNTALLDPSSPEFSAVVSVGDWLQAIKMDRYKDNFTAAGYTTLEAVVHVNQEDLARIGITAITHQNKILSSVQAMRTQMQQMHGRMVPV
cond: at 0.1 µM
measured quantity: inhibition (%)
Give your result in % as a bare value.

> print(dat)
                                   compound  obs.value
1  c1ccc(-c2n[nH]cc2-c2ccnc(-c3ccc(OCCN4CCOCC4)cc3)c2)nc1      -5.11
2       Fc1ccc(-c2nc3n(c2-c2ccncc2)CCS3)cc1       6.24
3  CN1CCN(CCCNc2nc3ccc(Oc4ccc(NC(=O)Nc5cc(C(F)(F)F)ccc5F)cc4)cc3[nH]2)CC1       6.02

Item under review: CS(=O)(=O)CCNCc1ccc(-c2ccc3ncnc(Nc4ccc(OCc5ccccc5)c(Br)c4)c3c2)o1 . Reported inhibition? 7

Value lookup for inhibition; key = O=C(Nc1n[nH]c2cc(-c3cc(F)ccc3F)ccc12)C1CC1 5.23

Data request, read-out inhibition, for Nc1nccc(-c2c(-c3ccc(F)cc3)ncn2C2CCC(O)CC2)n1 (stereo not given) -4.75

Query (compound): Fc1ccc(-c2ncn(CCCN3CCOCC3)c2-c2ccncc2)cc1 ; field requested: inhibition 1.1

May I ask what inhibition has been recorded for Fc1ccc(-c2ncn(C3CCNCC3)c2-c2ccnc(Oc3ccc(Oc4ccccc4)cc3)n2)cc1 ? 6.9

What value of measured inhibition is listed for CN(C)CCOc1ccc(-c2cc(-c3ccc4c(c3)CCC4=NO)c(-c3ccncc3)o2)cc1 ? -1.28

For the compound shown here, COc1ccc2ncn(-c3cc(O[C@H](C)c4ccccc4Cl)c(C(N)=O)s3)c2c1 , give the reported inhibition. 6.03

Return reported inhibition; argument: Cc1ccc(C(=O)NC(C)C)cc1-c1ccc(C(=O)NCC2CC2)cc1 -6.17

May I ask what inhibition has been recorded for COc1cccc(/C=N/Nc2ncnc3c2cnn3-c2cccc(OC)c2)c1 ? 6.9

Field request: inhibition | item: COC(=O)Nc1nc2ccc(Sc3ccc(NC(=O)Nc4cc(C(F)(F)F)ccc4F)cc3)cc2[nH]1 49.5

What does the record list as inhibition for Cc1ccc(NC(=O)c2ccoc2)cc1-c1ccc(C(=O)NCC2CC2)cc1 ? 5.05

# get_value(readout='inhibition', item= O=C1Nc2ccccc2/C1=C/Nc1ccc(-n2cncn2)cc1 ) 4.98

Looking for the measured inhibition of CCC(=O)Nc1ccc(C)c(-c2ccc(C(=O)NCC3CC3)cc2)c1 , can you help? 6.75

Requested read-out: inhibition. Entry: NC(=O)c1cc(-c2ccncc2)cc(-c2ccccc2)c1N 19.8
